pIC50: −log10 of the molar value.
Quick record of pIC50 values for cMET (Homo sapiens).

Past entries and their recorded results:
CCOC(=O)N(c1c(Oc2ccc(NC(=O)c3cnn(-c4ccccc4)c3CC)cc2F)ccnc1N)C(C)C [Example 35] : < 5.30
Nc1nccc(Oc2ccc(NC(=O)c3ccn(-c4ccccc4)n3)cc2F)c1Cl [Example 39] : 5.30 to 6.30
Nc1nccc(Oc2ccc(NC(=O)c3cn(-c4ccccc4)nn3)cc2F)c1Cl [Example 40] : < 5.30
Cc1c(C(=O)Nc2ccc(Oc3ccnc(N)c3Cl)c(F)c2)nnn1-c1ccccc1 [Example 41] : < 5.30

Now examine the next entry.
Recorded pIC50 for Nc1ncnc(Oc2ccc(NC(=O)c3cnn(C4CCCCC4)c3C(F)(F)F)cc2F)c1Cl [Example 51] on cMET (Homo sapiens) was < 5.30
